experiment: Biodistribution in normal mice; assay type: in vivo; conditions: 18F-labeled compounds, tail vein injection, ICR male mice; ratio of brain uptake (% ID/g) at 2 min over 30 min
For each entry below, report its Brain uptake ratio value.
Write the number on its own, no unit after it.

Request the reported Brain uptake ratio associated with `CN(C)c1ccc(/N=C/c2ccc(F)cc2)cc1`
2.9

Request the reported Brain uptake ratio associated with `CNc1ccc(/N=C/c2ccc(F)cc2)cc1`
5.4

Request the reported Brain uptake ratio associated with `O=C(O)c1cc(/N=C/c2ccc(F)cc2)ccc1O`
11.0

Request the reported Brain uptake ratio associated with `COc1ccc(/N=C/c2ccc(F)cc2)cc1`
4.2

Request the reported Brain uptake ratio associated with `Nc1ccc(/N=C/c2ccc(F)cc2)cc1`
8.7

* * *

For each entry below, report its pKi value.
target: Aβ1-40 aggregates (Homo sapiens); experiment: In vitro binding assay with Aβ1-40 aggregates, inhibition of [125I]3'-I-BTA-1 binding; settings: unlabeled compounds; Aβ1-40 aggregates 20 nM; [125I]3'-I-BTA-1 0.04 nM; 3 hr room temperature; Ki calculated from IC50
Keep it numeric: pKi is minus log10 of the concentration in mol/L.

Request the reported pKi associated with `CNc1ccc(/N=C/c2ccc(F)cc2)cc1`
5.98

Request the reported pKi associated with `Nc1ccc(/N=C/c2ccc(F)cc2)cc1`
6.52

Request the reported pKi associated with `CN(C)c1ccc(/N=C/c2ccc(F)cc2)cc1`
6.83

* * *

ENDPOINT_LABEL: melting point

Request the reported melting point associated with `Nc1ccc(/N=C/c2ccc(F)cc2)cc1`
169 to 170 °C

Request the reported melting point associated with `CNc1ccc(/N=C/c2ccc(F)cc2)cc1`
106 to 107 °C

Request the reported melting point associated with `CN(C)c1ccc(/N=C/c2ccc(F)cc2)cc1`
191 to 192 °C

Request the reported melting point associated with `COc1ccc(/N=C/c2ccc(F)cc2)cc1`
92 to 93 °C

Request the reported melting point associated with `Oc1ccc(/N=C/c2ccc(F)cc2)cc1`
148 to 149 °C

* * *

molecular target: Aβ1-40 aggregates (Homo sapiens, UniProt P05067); construct: purchased Sigma; assay: In vitro binding assay with Aβ1-40 aggregates, inhibition of [125I]3'-I-BTA-1 binding; details: conclusion from Ki values of Table 2
Sequence (P05067 672-711): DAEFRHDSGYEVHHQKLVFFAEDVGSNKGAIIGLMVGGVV

MOLECULE | affinity to Aβ1-40 (in words)
Nc1ccc(/N=C/c2ccc(F)cc2)cc1 [Compound A] | have affinity to Aβ1-40
CNc1ccc(/N=C/c2ccc(F)cc2)cc1 [B] | have affinity to Aβ1-40
CN(C)c1ccc(/N=C/c2ccc(F)cc2)cc1 [C] | have affinity to Aβ1-40

* * *

For each entry below, report its Ki value.
target: Aβ1-40 aggregates (Homo sapiens, UniProt P05067); assay: In vitro binding assay with Aβ1-40 aggregates, inhibition of [125I]3'-I-BTA-1 binding; settings: unlabeled compounds; Aβ1-40 aggregates 20 nM; [125I]3'-I-BTA-1 0.04 nM; 3 hr room temperature; Ki calculated from IC50

Request the reported Ki associated with Oc1ccc(/N=C/c2ccc(F)cc2)cc1 [D]
> 10 µM

Request the reported Ki associated with COc1ccc(/N=C/c2ccc(F)cc2)cc1 [E]
> 10 µM

Request the reported Ki associated with O=C(O)c1cc(/N=C/c2ccc(F)cc2)ccc1O [F]
> 10 µM
